System: Staphylococcus aureus
Test: Antibacterial activity against methicillin-sensitive Staphylococcus aureus ATCC 29213 assessed as reduction in bacterial growth incubated for 18 hrs by agar dilution method
Type: functional
Details: ATCC 29213, 18 h
READOUT: MIC (µg/mL)
Numbers only; they are read as µg/mL.

# lookup: MIC of "C=C[C@]1(C)C[C@@H](OC(=O)CS[C@@H]2CC[C@H](C(=O)OCC)C[C@H]2NS(=O)(=O)c2ccc(Cl)cc2)[C@]2(C)[C@H](C)CC[C@]3(CCC(=O)[C@H]32)[C@@H](C)[C@@H]1O" 1

# lookup: MIC of "C=C[C@]1(C)C[C@@H](OC(=O)CS[C@@H]2CC[C@H](C(=O)OCC)C[C@H]2NS(=O)(=O)c2ccc(NC(C)=O)cc2)[C@]2(C)[C@H](C)CC[C@]3(CCC(=O)[C@H]32)[C@@H](C)[C@@H]1O" 0.5

# lookup: MIC of "C=C[C@]1(C)C[C@@H](OC(=O)CS[C@@H]2CC[C@H](C(=O)OCC)C[C@H]2NS(=O)(=O)c2ccc(C)cc2)[C@]2(C)[C@H](C)CC[C@]3(CCC(=O)[C@H]32)[C@@H](C)[C@@H]1O" 1
